# Experimental Target: T1, first WW domain of human YAP2 (YAP-WW1) (human, UniProt P46937-2 165-209)
# T1 construct: also called hYAP-WW1; not shown: GST, N-terminal, cleaved; His tag, N-terminal, cleaved
# T1 sequence (P46937 165-209): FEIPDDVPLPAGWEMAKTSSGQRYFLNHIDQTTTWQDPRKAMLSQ
# Assay Details: ITC
# Run Conditions: both partners purified
Measure: Kd (µM)
A number alone suffices; assume µM.

Query (binder): DLWLPPPEYVPL [Rabies Late domain peptide] ; field requested: Kd 181

Values were extracted from paper PMC6803667.
